- experimental_target: SyPII (Synechococcus elongatus)
- Construct: Strep-tag; made in house
- method_description: ITC binding of small effector molecules to cyanobacterial SyPII
- Set-up: species or system Synechococcus elongatus PCC 7942
- condition_details: Kd1 (three-sites binding model), in presence 2-OG (1 mM) and 150 µM ADP
experimental_readout: Kd (µM)
Numbers only; they are read as µM.

Reported SyPII (Synechococcus elongatus) Kd for item Nc1ncnc2c1ncn2[C@@H]1O[C@H](COP(=O)(O)OP(=O)(O)O)[C@@H](O)[C@H]1O was 10.7

----------
- experimental_target: PpPII (Porphyra purpurea, UniProt P51254)
- Sequence (P51254 whole entry): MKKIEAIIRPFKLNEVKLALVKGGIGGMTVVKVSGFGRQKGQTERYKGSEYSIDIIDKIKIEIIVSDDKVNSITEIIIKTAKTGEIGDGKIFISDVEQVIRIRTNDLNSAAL
- method_description: ITC binding of small effector molecules to red algal PpPII
- condition_details: read-out: Kd2 (three-sites binding model), titrant alone
experimental_readout: pKd
Lab note: report pKd as minus log10 of the concentration in molar units, number only.

The molecule listed as Nc1ncnc2c1ncn2[C@@H]1O[C@H](COP(=O)(O)OP(=O)(O)OP(=O)(O)O)[C@@H](O)[C@H]1O [ATP] shows pKd equal to 4.73

----------
- experimental_target: SyPII (Synechococcus elongatus, UniProt P0A3F4)
- Construct: Strep-tag; made in house
- Sequence (P0A3F4 whole entry): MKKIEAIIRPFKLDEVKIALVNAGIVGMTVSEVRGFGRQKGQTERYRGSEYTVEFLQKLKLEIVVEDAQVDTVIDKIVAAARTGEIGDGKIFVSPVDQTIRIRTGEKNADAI
- method_description: ITC binding of small effector molecules to cyanobacterial SyPII
- Design: species or system Synechococcus elongatus PCC 7942
- condition_details: titrant alone, read-out: Kd2 (three-sites binding model)
- Protocol: To gain additional insights into the ligand binding properties of PpPII in comparison to cyanobacterial and chloroplastid PII proteins, isothermal titration calorimetry (ITC) experiments were performed using highly purified Strep-tagged or His-tagged recombinant PpPII, SyPII, CrPII, and PhyscoPII proteins (Supplementary Fig. S1) with different protein/ligand/ concentrations to determine the best fitting conditions of the binding model. […]
experimental_readout: Kd
Answer with the figure and its unit, nothing else.

Kd reported for this compound Nc1ncnc2c1ncn2[C@@H]1O[C@H](COP(=O)(O)OP(=O)(O)OP(=O)(O)O)[C@@H](O)[C@H]1O : 15.9 µM

----------
- experimental_target: CrPII
- method_description: ITC binding of small effector molecules to green algal CrPII
- Parameters: species or system Chlamydomonas reinhardtii
- condition_details: in presence 2-OG (2 mM), read-out: Kd1 (three-sites binding model)
experimental_readout: pKd
Keep it numeric: pKd is minus log10 of the concentration in mol/L.

// recorded pKd for Nc1ncnc2c1ncn2[C@@H]1O[C@H](COP(=O)(O)OP(=O)(O)OP(=O)(O)O)[C@@H](O)[C@H]1O : 5.24

----------
- experimental_target: PhyscoPII
- method_description: ITC binding of small effector molecules to plant-moss PhyscoPII
- Parameters: species or system Physcomitrella patens
- condition_details: in presence 2-OG, read-out: Kd1 (three-sites binding model)
- Description: To gain additional insights into the ligand binding properties of PpPII in comparison to cyanobacterial and chloroplastid PII proteins, isothermal titration calorimetry (ITC) experiments were performed using highly purified Strep-tagged or His-tagged recombinant PpPII, SyPII, CrPII, and PhyscoPII proteins (Supplementary Fig. S1) with different protein/ligand/ concentrations to determine the best fitting conditions of the binding model. […]
experimental_readout: Kd
Write the quantity with the unit trailing the number.

response.value for Nc1ncnc2c1ncn2[C@@H]1O[C@H](COP(=O)(O)OP(=O)(O)OP(=O)(O)O)[C@@H](O)[C@H]1O (field: Kd) = 8 µM

The origin of these recorded values is paper PMC5768801.
